experimentalSystem: 72 kDa type IV collagenase (Homo sapiens, UniProt P08253)
Sequence (P08253 whole entry): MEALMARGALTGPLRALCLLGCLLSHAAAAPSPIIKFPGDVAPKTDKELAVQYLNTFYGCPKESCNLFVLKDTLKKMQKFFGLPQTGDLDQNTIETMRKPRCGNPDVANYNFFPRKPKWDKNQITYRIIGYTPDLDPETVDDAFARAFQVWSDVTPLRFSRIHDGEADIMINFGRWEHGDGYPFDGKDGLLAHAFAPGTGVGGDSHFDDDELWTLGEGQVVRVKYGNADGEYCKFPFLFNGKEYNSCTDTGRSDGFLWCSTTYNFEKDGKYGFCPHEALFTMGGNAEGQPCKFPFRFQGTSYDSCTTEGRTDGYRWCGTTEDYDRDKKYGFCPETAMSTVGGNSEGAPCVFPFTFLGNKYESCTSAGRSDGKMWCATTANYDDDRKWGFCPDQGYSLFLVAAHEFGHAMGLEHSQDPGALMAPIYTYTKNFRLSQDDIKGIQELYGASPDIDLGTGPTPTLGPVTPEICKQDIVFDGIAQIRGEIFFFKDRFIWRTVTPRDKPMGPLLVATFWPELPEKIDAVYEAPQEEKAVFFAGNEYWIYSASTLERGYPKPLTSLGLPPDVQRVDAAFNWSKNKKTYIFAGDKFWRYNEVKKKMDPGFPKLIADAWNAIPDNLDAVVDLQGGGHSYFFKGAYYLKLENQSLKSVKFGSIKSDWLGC
Consider the cut-off 200 nM. If the recorded IC50 is strictly smaller, the label is t; if not, the label is f.

Take a look at these entries with their results.
- CN(C(=O)CCCOc1ccc(S(=O)(=O)C2(C(=O)NO)CCOCC2)cc1)c1ccc(OC(F)(F)F)cc1: f
- O=C(CCCOc1ccc(S(=O)(=O)C2(C(=O)NO)CCOCC2)cc1)N1CCCCC1: t
- CN(C)c1ccc(C(=O)CCCCOc2ccc(S(=O)(=O)C3(C(=O)NO)CCOCC3)cc2)cc1: t
- COc1ccc(NC(=O)CCCOc2ccc(S(=O)(=O)C3(C(=O)NO)CCOCC3)cc2)cc1: t

Now for a further compound.
Quick check: IC50 of O=C(NCCCOc1ccc(S(=O)(=O)C2(C(=O)NO)CCOCC2)cc1)c1ccc(OC(F)(F)F)cc1 under 200 nM?
f

###

For each of the compounds below, state its IC50.
experimentalSystem: Matrix metalloproteinase-9 (Homo sapiens, UniProt P14780)
Sequence (P14780 whole entry): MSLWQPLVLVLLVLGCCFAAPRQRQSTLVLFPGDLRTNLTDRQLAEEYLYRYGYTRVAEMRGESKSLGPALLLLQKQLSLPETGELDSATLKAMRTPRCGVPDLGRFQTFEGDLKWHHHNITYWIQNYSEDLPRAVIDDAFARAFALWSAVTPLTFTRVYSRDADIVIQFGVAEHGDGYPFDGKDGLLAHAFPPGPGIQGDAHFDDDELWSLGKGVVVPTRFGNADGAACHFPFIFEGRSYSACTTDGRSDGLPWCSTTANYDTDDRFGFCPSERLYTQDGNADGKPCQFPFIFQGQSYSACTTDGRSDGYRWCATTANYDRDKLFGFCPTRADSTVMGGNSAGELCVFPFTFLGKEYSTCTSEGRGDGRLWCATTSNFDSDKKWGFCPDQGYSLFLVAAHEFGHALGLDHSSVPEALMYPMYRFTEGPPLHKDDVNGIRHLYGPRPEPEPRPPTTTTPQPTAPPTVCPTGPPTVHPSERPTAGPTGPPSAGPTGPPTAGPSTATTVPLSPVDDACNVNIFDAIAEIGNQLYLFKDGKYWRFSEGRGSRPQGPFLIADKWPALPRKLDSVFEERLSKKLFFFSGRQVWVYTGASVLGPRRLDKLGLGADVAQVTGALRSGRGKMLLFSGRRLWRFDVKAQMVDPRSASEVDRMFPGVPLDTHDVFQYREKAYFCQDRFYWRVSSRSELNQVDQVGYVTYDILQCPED
One number for each entry, in nM.

• COc1ccc(NC(=O)CCCOc2ccc(S(=O)(=O)C3(C(=O)NO)CCOCC3)cc2)cc1 = 23
• O=C(CCCOc1ccc(S(=O)(=O)C2(C(=O)NO)CCOCC2)cc1)N1CCCCC1 = 670
• O=C(NCCCOc1ccc(S(=O)(=O)C2(C(=O)NO)CCOCC2)cc1)c1ccc(OC(F)(F)F)cc1 = 2200

In the following, a different compound is considered.
Return IC50 measured with Matrix metalloproteinase-9 (Homo sapiens, UniProt P14780) given this compound: CN(C(=O)CCCOc1ccc(S(=O)(=O)C2(C(=O)NO)CCOCC2)cc1)c1ccc(OC(F)(F)F)cc1
380

The reported numbers originate from ChEMBL document CHEMBL1770058.
